The values you see were collected from ChEMBL document CHEMBL3301458.

target: hERG (Kv11.1, KCNH2) (Homo sapiens); assay: in vitro
Sequence (Q12809 whole entry): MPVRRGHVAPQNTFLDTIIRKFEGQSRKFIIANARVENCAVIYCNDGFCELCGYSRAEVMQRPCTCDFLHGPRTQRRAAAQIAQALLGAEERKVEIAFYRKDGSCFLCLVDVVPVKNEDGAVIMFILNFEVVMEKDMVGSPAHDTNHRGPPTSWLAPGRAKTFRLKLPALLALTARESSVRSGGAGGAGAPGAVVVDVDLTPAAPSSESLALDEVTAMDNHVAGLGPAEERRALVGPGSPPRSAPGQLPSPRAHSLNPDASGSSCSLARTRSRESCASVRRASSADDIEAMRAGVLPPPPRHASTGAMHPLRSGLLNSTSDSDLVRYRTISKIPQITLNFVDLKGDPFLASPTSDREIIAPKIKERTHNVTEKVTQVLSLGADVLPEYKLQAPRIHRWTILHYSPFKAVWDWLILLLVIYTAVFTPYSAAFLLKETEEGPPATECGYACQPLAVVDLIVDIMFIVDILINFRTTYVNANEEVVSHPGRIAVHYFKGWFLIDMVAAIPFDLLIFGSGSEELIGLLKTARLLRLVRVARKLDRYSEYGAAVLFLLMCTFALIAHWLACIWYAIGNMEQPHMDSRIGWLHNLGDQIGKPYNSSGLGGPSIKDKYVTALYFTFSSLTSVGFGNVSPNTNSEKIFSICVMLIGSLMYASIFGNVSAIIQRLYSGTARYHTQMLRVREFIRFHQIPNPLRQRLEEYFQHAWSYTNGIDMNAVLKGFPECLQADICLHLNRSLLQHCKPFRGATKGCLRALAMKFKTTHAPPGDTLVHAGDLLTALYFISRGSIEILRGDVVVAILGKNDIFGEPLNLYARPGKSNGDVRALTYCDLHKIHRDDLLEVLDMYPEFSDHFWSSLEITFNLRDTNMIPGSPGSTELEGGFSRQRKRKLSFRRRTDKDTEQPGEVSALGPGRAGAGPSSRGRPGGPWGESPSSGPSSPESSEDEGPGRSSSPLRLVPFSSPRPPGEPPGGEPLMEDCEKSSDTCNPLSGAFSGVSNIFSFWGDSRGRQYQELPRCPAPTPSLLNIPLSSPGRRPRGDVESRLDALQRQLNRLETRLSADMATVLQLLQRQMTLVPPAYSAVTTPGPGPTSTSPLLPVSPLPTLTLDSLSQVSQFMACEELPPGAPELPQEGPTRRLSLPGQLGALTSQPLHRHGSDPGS
Description: MMV: Malaria Box compounds were tested for inhibition of the human ether a go-go related gene (hERG), Kv11.1 channel, using IonWorks 384-well patch clamp electrophysiology at 11.1uM (3 independent assay plates up to 12 cells per concentration).
Result Type: inhibition at 11.1 µM (%)
Express it in %; write the number only.

- Compound: "CCOC(=O)C1CCN(C(=O)CN2C(=O)c3ccccc3C2c2c[nH]c3ccccc23)CC1 (stereo not drawn)"
  Readout Unit: "%"
  inhibition at 11.1 µM: 18
- Compound: "CCc1ccc(Nc2cc(C)nc3nc(C)nn23)cc1"
  Readout Unit: "%"
  inhibition at 11.1 µM: 42
- Compound: "COc1ccc(Br)cc1C1Nc2ccc3ccccc3c2C2=C1C(=O)CC(c1ccccc1)C2 (stereo not drawn)"
  Readout Unit: "%"
  inhibition at 11.1 µM: 5
- Compound: "CCCN(CCC)CC(O)COc1ccccc1C(=O)Nc1ccccc1 (stereo not drawn)"
  Readout Unit: "%"
  inhibition at 11.1 µM: 98
- Compound: "CC(C)(C)CC(C)(C)NCC(O)COc1ccc(Cl)cc1Cl (stereo not drawn)"
  Readout Unit: "%"
  inhibition at 11.1 µM: 81
- Compound: "CCCOCc1cc(CN2CCN(c3cccc(Cl)c3)CC2)c(O)c2ncccc12"
  Readout Unit: "%"
  inhibition at 11.1 µM: 106
- Compound: "COc1ccc(Nc2cc(C)nc(NCc3ccccc3)n2)cc1"
  Readout Unit: "%"
  inhibition at 11.1 µM: 67
- Compound: "Cc1cc(Nc2ccc(C)c(Cl)c2)n2nc(C(F)(F)F)nc2n1"
  Readout Unit: "%"
  inhibition at 11.1 µM: 72

Query :: Which inhibition at 11.1 µM is reported with hERG (Kv11.1, KCNH2) (Homo sapiens) for this entry: Cc1ccc2cc3c(N)c4c(C)ccc(C)c4nc3nc2c1 ?
Result :: 60

Query :: Which inhibition at 11.1 µM is reported with hERG (Kv11.1, KCNH2) (Homo sapiens) for this entry: COc1ccc2nc(C)cc(Nc3ccc(Cl)cc3)c2c1 ?
Result :: 111

Query :: Which inhibition at 11.1 µM is reported with hERG (Kv11.1, KCNH2) (Homo sapiens) for this entry: CC(C)c1ccc(CNCC(O)c2ccccc2)cc1 (stereo not drawn) ?
Result :: 59

Query :: Which inhibition at 11.1 µM is reported with hERG (Kv11.1, KCNH2) (Homo sapiens) for this entry: CCOC(=O)c1c(C)n(-c2ccccc2)c2ccc(OC(=O)c3cc(OC)c(OC)c(OC)c3)cc12 ?
Result :: 11

Query :: Which inhibition at 11.1 µM is reported with hERG (Kv11.1, KCNH2) (Homo sapiens) for this entry: CC(C)(C)C(=O)Nc1ccc(C(=O)Nc2cccc(-c3nc4ccccc4[nH]3)c2)cc1 ?
Result :: 40

Query :: Which inhibition at 11.1 µM is reported with hERG (Kv11.1, KCNH2) (Homo sapiens) for this entry: OC(CNC1CCCC1)Cn1c2ccccc2c2ccccc21 (stereo not drawn) ?
Result :: 55

Query :: Which inhibition at 11.1 µM is reported with hERG (Kv11.1, KCNH2) (Homo sapiens) for this entry: CC1CCCCN1CCCNC(=O)c1ccc2c(c1)sc1nc(-c3ccc(F)cc3)cn12 (stereo not drawn) ?
Result :: 81

Query :: Which inhibition at 11.1 µM is reported with hERG (Kv11.1, KCNH2) (Homo sapiens) for this entry: CN(C)c1ccc(C=Cc2nc(=O)c3ccccc3o2)cc1 ?
Result :: 0

Query :: Which inhibition at 11.1 µM is reported with hERG (Kv11.1, KCNH2) (Homo sapiens) for this entry: Cc1c(C)n(CC(O)CNC2CCCCC2C)c2ccccc12 (stereo not drawn) ?
Result :: 20

Query :: Which inhibition at 11.1 µM is reported with hERG (Kv11.1, KCNH2) (Homo sapiens) for this entry: OC1=C2C(=Nc3ccccc3SC2c2ccccc2)c2ccccc21 (stereo not drawn) ?
Result :: 16

Query :: Which inhibition at 11.1 µM is reported with hERG (Kv11.1, KCNH2) (Homo sapiens) for this entry: COc1ccc(C2c3ccc4ccccc4c3Oc3ncn(CCCN(C)C)c(=N)c32)cc1 (stereo not drawn) ?
Result :: 86

Query :: Which inhibition at 11.1 µM is reported with hERG (Kv11.1, KCNH2) (Homo sapiens) for this entry: Clc1ccc2[nH]c3c(NCCCN4CCOCC4)ncnc3c2c1 ?
Result :: 89

###

molecular target: hERG (Kv11.1, KCNH2) (Homo sapiens); test: in vitro
Active and inactive are the calls of the source. How the calls were made is not given here.
Select the correct class. Options are yes (active), no (inactive) and nothing else.

Illustrative cases are given below, each with its answer.
- Compound: "COc1ccc(Nc2nc(N/N=C/c3ccc(O)cc3)nc(Nc3ccc([N+](=O)[O-])cc3)n2)cc1"
  Discrete Label: "yes"
- Compound: "c1ccc(-c2ccc(-c3nc4ccccc4[nH]3)cc2)cc1"
  Discrete Label: "no"
- Compound: "CC(=O)c1ccc(NC(=O)CSc2nc(-c3ccccc3Cl)ns2)cc1"
  Discrete Label: "no"

Query :: Test call, this compound: CN1C=C(c2ccc3ccccc3n2)C(c2c[nH]c3ccccc23)c2ccccc21 (stereo not drawn)
Result :: yes

Query :: Test call, this compound: COc1ccccc1NC1=C(N2CCCCC2)C(=O)c2ccccc2C1=O
Result :: no

Query :: Test call, this compound: CC1CC(C)CN(C(=O)c2ccc(Cl)cc2Cl)C1 (stereo not drawn)
Result :: no

Query :: Test call, this compound: CCN(CC)CCNc1ccnc2cc(Cl)ccc12
Result :: yes

Query :: Test call, this compound: COc1cc(OC)cc(N2C(=O)N(Cc3ccc(C(C)(C)C)cc3)c3ccccc3S2(=O)=O)c1
Result :: no

Query :: Test call, this compound: O=c1nc(C=Cc2ccc(Cl)cc2)oc2ccccc12
Result :: no

Query :: Test call, this compound: COc1cccc(C=Cc2nc(=O)c3ccccc3o2)c1OC
Result :: no

Query :: Test call, this compound: COc1ccc(-c2nonc2NC(=O)c2cccc(C)c2)cc1OC
Result :: no

Query :: Test call, this compound: O=C(Nc1ccc(Cl)c(Cl)c1)Nc1ccc(Cl)c(Cl)c1
Result :: yes

Query :: Test call, this compound: COCCn1c(C)nc2ccccc2c1=O
Result :: no

Query :: Test call, this compound: CCOC(=O)c1c(NC(=O)c2ccccc2)sc2c(O)c(CN(CC)CC)ccc12
Result :: no

Query :: Test call, this compound: O=C(Nc1ccccc1O)c1ccc(-c2ccc(Cl)cc2Cl)o1
Result :: no

Query :: Test call, this compound: O=C(Nc1ccc(Br)cc1)Nc1cccc(Cl)c1
Result :: no

Query :: Test call, this compound: CCN(Cc1ccccc1)C1CCN(Cc2cc(Br)ccc2O)CC1
Result :: yes

Query :: Test call, this compound: c1ccc2c(NCCCCCCNc3c4c(nc5ccccc35)CCCC4)c3c(nc2c1)CCCC3
Result :: yes

Query :: Test call, this compound: Nc1ccc(-c2nc3cc(Oc4ccc(Oc5ccc6[nH]c(-c7ccc(N)cc7)nc6c5)cc4)ccc3[nH]2)cc1
Result :: no

Query :: Test call, this compound: CCOc1ccc2nc(C)cc(Nc3ccc(N(C)C)cc3)c2c1
Result :: no

###

target: UniProt Q12809; experiment: in vitro
Description: MMV: Malaria Box compounds were tested for inhibition of the human ether a go-go related gene (hERG), Kv11.1 channel, using IonWorks 384-well patch clamp electrophysiology at 1.1uM (3 independent assay plates up to 12 cells per concentration).
Measured inhibition at 1.1 µM, listed per entry for reference.
Express it in %; write the number only.

A selection of reference data follows.
- Compound: "CCN(CC)CCNc1ccnc2cc(Cl)ccc12"
  Measured Result: 18
- Compound: "CCOc1c(Cl)cc(CNC(C)C(O)c2ccccc2)cc1OC (stereo unspecified)"
  Measured Result: -4
- Compound: "Nc1nc(Nc2cccc(F)c2)nc2ccccc12"
  Measured Result: 11

Query :: Field request: inhibition at 1.1 µM | item: CCOc1cc2c(cc1OCC)C(c1cc(Cl)ccc1O)NCC2 (stereo unspecified)
Result :: 1

Query :: Field request: inhibition at 1.1 µM | item: Cc1ccc(-c2cc3c(nn2)-c2ccccc2C3=O)cc1
Result :: 14

Query :: Field request: inhibition at 1.1 µM | item: COC(=O)c1ccc(C2C3=C(O)CC(c4ccc(F)cc4)CC3=Nc3ccccc3N2C(=O)c2ccccc2)cc1 (stereo unspecified)
Result :: 98

Query :: Field request: inhibition at 1.1 µM | item: COc1ccc(C2N(C)c3ccccc3N2C)cc1
Result :: -13

Query :: Field request: inhibition at 1.1 µM | item: CC1=C(CC(=O)c2cccc([N+](=O)[O-])c2)C(=O)c2ccccc2C1=O
Result :: 9

Query :: Field request: inhibition at 1.1 µM | item: c1ccc(/C2=N/c3ccccc3/N=C(/c3ccccc3)c3ccccc32)cc1
Result :: 7

Query :: Field request: inhibition at 1.1 µM | item: CCOc1cc2c(cc1OCC)C(c1cc(Cl)c(O)c(OCC)c1)NCC2 (stereo unspecified)
Result :: 1

Query :: Field request: inhibition at 1.1 µM | item: CCOc1cccc2sc(N(Cc3cccnc3)C(=O)C3CCCCC3)nc12
Result :: 8

###

target: hERG (Kv11.1, KCNH2) (Homo sapiens); assay: in vitro
Result Type: inhibition at 1.1 µM (%)
Express it in %; write the number only.

A selection of reference data follows.
- Molecule: "COc1cc(-c2nc(-c3ccccc3)c(-c3ccccc3)[nH]2)cc(OC)c1O"
  Result Type: "inhibition at 1.1 µM"
  Measured Result: 11
- Molecule: "CCOc1ccccc1CNC(=O)C1c2ccccc2C(=O)N(CC(C)C)C1c1cccs1 (stereo unspecified)"
  Result Type: "inhibition at 1.1 µM"
  Measured Result: 12
- Molecule: "C=CCc1c(C)nc2ccccc2c1O"
  Result Type: "inhibition at 1.1 µM"
  Measured Result: 11

Query :: Field request: inhibition at 1.1 µM | item: O=C1c2ccccc2-c2nnc(-c3ccc(Br)cc3)cc21
Result :: -3

Query :: Field request: inhibition at 1.1 µM | item: CCN(CC)c1ccc(NC(=O)c2cccs2)cc1
Result :: -1

Query :: Field request: inhibition at 1.1 µM | item: CCOc1ccc(CN2CCN(CC(O)COc3ccc(OCC(O)CN4CCN(Cc5ccc(OCC)cc5)CC4)cc3)CC2)cc1 (stereo unspecified)
Result :: 70

Query :: Field request: inhibition at 1.1 µM | item: CCCCNCC(O)(c1ccc(Cl)cc1)c1ccc(Cl)cc1
Result :: 30

Query :: Field request: inhibition at 1.1 µM | item: CN(C)c1ccc(-c2nc3cc(N)ccc3[nH]2)cc1
Result :: 14
